- MEASUREMENT CONTEXT: in NMP, 303.15 K
MEASUREMENT TYPE: solubility (mole fraction)
Give the figure by itself; no unit, no explanation.

INPUT: If you can, please state the reported solubility (mole fraction) value of `O=C1OC(=O)[C@H]2[C@@H]1[C@@H]1C=C[C@H]2C1` .
OUTPUT: 0.19

====

- MEASUREMENT CONTEXT: in NMP, 308.15 K
MEASUREMENT TYPE: solubility (mole fraction)

INPUT: If you can, please state the reported solubility (mole fraction) value of `O=C1OC(=O)[C@H]2[C@@H]1[C@@H]1C=C[C@H]2C1` .
OUTPUT: 0.209
